Source of measurements: patent US20220259289A1

# assay system: T1, human serum albumin (human, UniProt P02768 25-609)
# T1 construct: Negative control of the ELISA; also called HSA
# T1 sequence (P02768 25-609 limits assumed): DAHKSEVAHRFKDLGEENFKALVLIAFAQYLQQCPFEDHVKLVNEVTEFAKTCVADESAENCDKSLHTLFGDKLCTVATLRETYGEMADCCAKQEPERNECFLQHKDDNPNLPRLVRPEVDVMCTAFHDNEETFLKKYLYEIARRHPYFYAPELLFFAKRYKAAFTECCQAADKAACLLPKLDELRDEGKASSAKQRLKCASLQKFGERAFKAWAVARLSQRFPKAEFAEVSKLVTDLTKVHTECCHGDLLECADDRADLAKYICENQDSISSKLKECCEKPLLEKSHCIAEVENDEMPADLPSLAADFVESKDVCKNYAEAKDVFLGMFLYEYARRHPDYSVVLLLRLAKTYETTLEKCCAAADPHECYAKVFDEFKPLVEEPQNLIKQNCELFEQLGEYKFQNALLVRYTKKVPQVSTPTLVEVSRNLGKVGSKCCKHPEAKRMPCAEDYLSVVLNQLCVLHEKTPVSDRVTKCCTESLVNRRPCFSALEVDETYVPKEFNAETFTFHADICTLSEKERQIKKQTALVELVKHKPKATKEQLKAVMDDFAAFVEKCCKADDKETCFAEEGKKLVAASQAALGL
# method description: ELISA, negative control HSA
# Description: Streptavidin-coated Maxisorp plates (Nunc catalog 436110) were blocked for 1 h in Starting Block T20 (Pierce) and then coated with biotinylated CD137 (using same antigen as in panning) or negative controls (an unrelated Fc-fused recombinant protein and human serum albumin) for 1 h. Plates were rinsed with TBST and diluted lysate was applied to plates for 1 h. […]
experimental endpoint: ELISA HSA (RLU)
# number only, unit RLU dropped from output

Example entries begin here.
ISOP193BR9P1G6 (designed binder, not shown: small tags and cut ends) LPAPKNLVVSRVTEDSARLSWDDQFEDWFDSFLIQYQESEQVGEAIVLTVPGSERSYDLTGLKPGTEYTVSIYGVHTRDWTAWNASNPLSAIFTT ... 960
ISOP193ER9P1H11 (designed binder, not shown: small tags and cut ends) LPAPKNLVVSRVTEDSARLSWTAPDAAFDSFDIYYFEHPVGGEAIVLTVPGSERSYDLTGLKPGTEYLVAIYGVKGGVFSHPLSAIFTT ... 640

Kindly review the next binder as well.
Record request: ELISA HSA (RLU) value, item ISOP193HR9P1H7 (designed binder, not shown: small tags and cut ends) LPAPKNLVVSRVTEDSARLSWTAPDAAFDSFEIYYREPHYGGEAIVLTVPGSERSYDLTGLKPGTEYWVTIYGVKVCLGSNPLSAIFTT 13700
